- Species on record: Rattus norvegicus
- method-notes: Open TG-GATES - Regimen: Daily Repeat
- Type: toxicity, organism-based, Sprague-Dawley
- Design: regimen Daily Repeat, gender Male, age 6 weeks
- recorded-conditions: in vivo, po, 0 mg/kg, […], tissue Plasma, route gavage, dose level Control, time 7 day
experimental-readout: gamma-GTP
The reply should consist of the numeric value with the unit placed after it.

Some solved cases for reference:
>>> observed_result("CC(=O)Oc1ccccc1C(=O)O")
"0.6 IU/L"
>>> observed_result("COc1ccc(Cc2nccc3cc(OC)c(OC)cc23)cc1OC")
"2 IU/L"
>>> observed_result("COc1ccc2c(c1)c(CC(=O)O)c(C)n2C(=O)c1ccc(Cl)cc1")
"0.6 IU/L"
>>> observed_result("CCc1cc(C(N)=S)ccn1 [ETHIONAMIDE]")
"2 IU/L"
>>> observed_result("O=C(O)c1cc(/N=N/c2ccc(S(=O)(=O)Nc3ccccn3)cc2)ccc1O")
"1.2 IU/L"

Okay, here is my list. What is gamma-GTP for each of these?
1. CCCC(CCC)C(=O)O
2. O=C(O)c1cn(C2CC2)c2cc(N3CCNCC3)c(F)cc2c1=O
3. CN(C)CCC=C1c2ccccc2CCc2ccccc21
4. NC(=O)N1c2ccccc2C=Cc2ccccc21 [CARBAMAZEPINE]

Reply |
1: 1.2 IU/L; 2: 1.2 IU/L; 3: 0.6 IU/L; 4: 1 IU/L
